Target: MAP4K3 (Homo sapiens, UniProt Q8IVH8)
Sequence (Q8IVH8 1-894): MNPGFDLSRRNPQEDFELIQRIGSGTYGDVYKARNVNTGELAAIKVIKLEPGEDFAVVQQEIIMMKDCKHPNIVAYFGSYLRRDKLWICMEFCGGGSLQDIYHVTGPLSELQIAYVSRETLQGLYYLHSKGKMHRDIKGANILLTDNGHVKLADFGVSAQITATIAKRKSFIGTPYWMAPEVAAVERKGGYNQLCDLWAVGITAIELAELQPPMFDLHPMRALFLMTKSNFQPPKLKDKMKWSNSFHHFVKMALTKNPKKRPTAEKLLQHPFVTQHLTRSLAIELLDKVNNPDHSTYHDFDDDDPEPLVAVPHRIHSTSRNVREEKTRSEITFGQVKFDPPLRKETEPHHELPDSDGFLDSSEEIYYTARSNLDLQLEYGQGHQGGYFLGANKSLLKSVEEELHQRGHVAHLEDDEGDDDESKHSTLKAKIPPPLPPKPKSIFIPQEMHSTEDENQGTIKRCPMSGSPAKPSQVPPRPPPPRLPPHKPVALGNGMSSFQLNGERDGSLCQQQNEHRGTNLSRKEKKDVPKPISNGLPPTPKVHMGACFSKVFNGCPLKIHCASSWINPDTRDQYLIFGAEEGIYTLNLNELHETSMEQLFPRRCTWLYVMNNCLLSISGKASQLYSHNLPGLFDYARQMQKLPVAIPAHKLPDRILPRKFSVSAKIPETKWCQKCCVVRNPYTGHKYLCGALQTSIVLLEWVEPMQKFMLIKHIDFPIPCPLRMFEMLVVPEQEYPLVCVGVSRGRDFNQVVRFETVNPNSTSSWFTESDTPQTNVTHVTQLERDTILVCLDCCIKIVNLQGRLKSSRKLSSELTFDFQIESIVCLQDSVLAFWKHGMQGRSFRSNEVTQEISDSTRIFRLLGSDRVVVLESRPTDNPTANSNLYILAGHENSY
Test: Kinase profiling MAP4K3
Assay type: biochemical
Details: 100 micromolar inhibitor concentration; 100 is no change; read-out: residual kinase activity, MAP4K3
measuredQuantity: remaining activity at 100 µM (%)
One number for each entry, in %.

Example compounds with recorded remaining activity at 100 µM:
CC(=O)Nc1nc2cc(F)ccc2s1 ... 55
CC(=O)Nc1nc2ccc(C(F)(F)F)cc2s1 ... 65
COc1ccc2sc(NC(C)=O)nc2c1 ... 75
CC(=O)Nc1nc2cc(C(F)(F)F)ccc2s1 ... 63

In the following, a different compound is considered.
Per the record, `CC(=O)Nc1nc2ccc(C#N)cc2s1` has remaining activity at 100 µM of 52

----------
target: CHK2 (Homo sapiens, UniProt O96017); test: Kinase profiling CHK2; format: biochemical; conditions: 100 micromolar inhibitor concentration; 100 is no change
Sequence (O96017 whole entry, species assumed): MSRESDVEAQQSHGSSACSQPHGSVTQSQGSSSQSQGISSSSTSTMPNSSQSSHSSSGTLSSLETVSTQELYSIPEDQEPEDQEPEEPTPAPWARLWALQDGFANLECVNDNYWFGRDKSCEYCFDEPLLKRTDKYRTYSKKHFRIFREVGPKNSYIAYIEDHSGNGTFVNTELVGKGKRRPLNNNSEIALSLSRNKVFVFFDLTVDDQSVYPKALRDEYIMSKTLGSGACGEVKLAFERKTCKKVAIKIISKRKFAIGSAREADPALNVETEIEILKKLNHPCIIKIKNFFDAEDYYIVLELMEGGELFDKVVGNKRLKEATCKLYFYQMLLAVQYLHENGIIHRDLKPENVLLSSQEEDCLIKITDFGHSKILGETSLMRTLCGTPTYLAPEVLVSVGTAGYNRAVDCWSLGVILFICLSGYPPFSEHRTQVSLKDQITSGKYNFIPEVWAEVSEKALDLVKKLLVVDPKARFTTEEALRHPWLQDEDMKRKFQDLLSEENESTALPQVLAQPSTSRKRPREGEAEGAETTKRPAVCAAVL
Provide the reported residual kinase activity, CHK2 of each item.

Batch request: residual kinase activity, CHK2 for each of the following compounds.
1. CC(=O)Nc1nc2ccc(F)cc2s1
2. O=C(Nc1nc2cc(O)ccc2s1)c1ccncc1

1: 74; 2: 93

Batch request: residual kinase activity, CHK2 for each of the following compounds.
1. N#Cc1ccc2nc(NC(=O)c3ccccc3)sc2c1
2. O=C(Nc1nc2ccc(O)cc2s1)c1cccnc1
3. COc1ccc2sc(NC(=O)c3ccccc3)nc2c1
4. O=C(Nc1nc2cc(O)ccc2s1)c1ccccn1
5. O=C(Nc1nc2ccc(O)cc2s1)c1ccccc1
6. O=C(Nc1nc2cc(O)ccc2s1)c1cccnc1
7. COC(=O)c1cccc(C(=O)Nc2nc3cc(OC)ccc3s2)c1

1: 62; 2: 16; 3: 98; 4: 75; 5: 5; 6: 46; 7: 65

Measured residual kinase activity, CHK2 for this entry `CC(=O)Nc1nc2ccccc2s1` on CHK2 (Homo sapiens, UniProt O96017): 87

----------
Test system: AMPK
Experiment: Kinase profiling AMPK
Assay type: biochemical
Details: 100 micromolar inhibitor concentration; 100 is no change
Text: Any value less that 25 is considered to be highly significant inhibition.
Output T for residual kinase activity, AMPK not less than 80; output F otherwise.

CC(=O)Nc1nc2cc(O)ccc2s1 [Compound 01-66] ... F

Hi, just wondering whether CC(=O)Nc1nc2ccc(O)cc2s1 [Compound 01-71] shows residual kinase activity, AMPK of 80 or higher.
F

Hi, just wondering whether O=C(Nc1nc2ccc(O)cc2s1)c1ccncc1 [Compound 08-42] shows residual kinase activity, AMPK of 80 or higher.
F

Hi, just wondering whether CC(=O)Nc1nc2cc(C)ccc2s1 [Compound 03-76] shows residual kinase activity, AMPK of 80 or higher.
F

Hi, just wondering whether O=C(Nc1nc2cc(O)ccc2s1)c1ccncc1 [Compound 03-11] shows residual kinase activity, AMPK of 80 or higher.
T

Hi, just wondering whether O=C(Nc1nc2cc(O)ccc2s1)c1cccnc1 [Compound 03-33] shows residual kinase activity, AMPK of 80 or higher.
T

----------
target: IGF-1R (Homo sapiens, UniProt P08069); assay: Kinase profiling IGF-1R; assay type: biochemical; conditions: 100 micromolar inhibitor concentration; 100 is no change
Sequence (P08069 31-1367, species assumed): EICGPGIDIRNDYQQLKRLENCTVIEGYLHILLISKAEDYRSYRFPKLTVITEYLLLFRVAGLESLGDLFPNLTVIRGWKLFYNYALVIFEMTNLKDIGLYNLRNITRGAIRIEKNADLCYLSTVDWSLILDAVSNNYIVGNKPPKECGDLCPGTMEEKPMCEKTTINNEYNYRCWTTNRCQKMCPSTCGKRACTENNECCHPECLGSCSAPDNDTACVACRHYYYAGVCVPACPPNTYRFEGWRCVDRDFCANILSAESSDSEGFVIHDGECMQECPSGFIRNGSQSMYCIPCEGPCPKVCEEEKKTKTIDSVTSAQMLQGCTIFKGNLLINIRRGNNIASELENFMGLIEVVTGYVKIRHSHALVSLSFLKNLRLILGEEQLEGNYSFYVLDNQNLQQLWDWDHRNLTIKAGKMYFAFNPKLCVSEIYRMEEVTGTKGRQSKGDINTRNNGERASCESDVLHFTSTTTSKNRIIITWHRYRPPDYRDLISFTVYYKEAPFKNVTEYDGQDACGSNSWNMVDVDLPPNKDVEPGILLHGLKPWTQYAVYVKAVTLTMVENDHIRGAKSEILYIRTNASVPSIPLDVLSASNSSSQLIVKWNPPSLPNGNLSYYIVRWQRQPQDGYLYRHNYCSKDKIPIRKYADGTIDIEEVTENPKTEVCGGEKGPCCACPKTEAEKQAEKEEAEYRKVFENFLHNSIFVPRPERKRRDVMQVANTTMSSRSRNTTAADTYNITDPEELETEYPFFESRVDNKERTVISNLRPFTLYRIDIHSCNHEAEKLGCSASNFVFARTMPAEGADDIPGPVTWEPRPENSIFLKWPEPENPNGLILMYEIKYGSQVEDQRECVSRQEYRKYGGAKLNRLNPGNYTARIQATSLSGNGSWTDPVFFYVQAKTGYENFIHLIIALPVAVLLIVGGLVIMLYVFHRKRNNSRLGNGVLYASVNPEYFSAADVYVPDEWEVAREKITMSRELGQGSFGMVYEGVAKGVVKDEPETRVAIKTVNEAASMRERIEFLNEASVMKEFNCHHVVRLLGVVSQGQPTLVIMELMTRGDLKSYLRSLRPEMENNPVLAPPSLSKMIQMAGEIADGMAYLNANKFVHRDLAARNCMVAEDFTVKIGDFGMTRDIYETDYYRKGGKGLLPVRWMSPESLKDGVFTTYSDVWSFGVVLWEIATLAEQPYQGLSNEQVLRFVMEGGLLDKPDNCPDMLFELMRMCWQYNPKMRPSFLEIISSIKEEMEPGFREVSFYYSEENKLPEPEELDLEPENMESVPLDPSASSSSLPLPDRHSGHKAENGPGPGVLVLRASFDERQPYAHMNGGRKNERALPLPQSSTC
measuredQuantity: residual kinase activity, IGF-1R

Example molecules with recorded residual kinase activity, IGF-1R:
COC(=O)c1cccc(C(=O)Nc2nc3ccc(F)cc3s2)c1 [Compound 03-110] ... 96
CC(=O)Nc1nc2ccccc2s1 [Compound 03-32] ... 74
COc1ccc2nc(NC(=O)c3ccccc3)sc2c1 [Compound 03-98] ... 104
CC(=O)Nc1nc2ccc(F)cc2s1 [Compound 03-94] ... 92
O=C(Nc1nc2cc(O)ccc2s1)c1ccncc1 [Compound 03-11] ... 107
N#Cc1ccc2nc(NC(=O)c3ccccc3)sc2c1 [Compound 03-106] ... 131

Batch request: residual kinase activity, IGF-1R for each of the following molecules.
1. O=C(Nc1nc2ccc(O)cc2s1)c1cccnc1 [Compound 08-44]
2. COc1ccc2sc(NC(=O)c3cccc(C(N)=O)c3)nc2c1 [Compound 03-113]
3. COC(=O)c1cccc(C(=O)Nc2nc3cc(OC)ccc3s2)c1 [Compound 03-108]

[54, 104, 123]

Batch request: residual kinase activity, IGF-1R for each of the following molecules.
1. O=C(Nc1nc2cc(O)ccc2s1)c1ccccn1 [Compound 03-13]
2. O=C(Nc1nc2cc(O)ccc2s1)c1cccnc1 [Compound 03-33]
3. O=C(Nc1nc2ccc(O)cc2s1)c1ccncc1 [Compound 08-42]
4. COc1ccc2sc(NC(=O)c3ccccc3)nc2c1 [Compound 03-95]
5. O=C(Nc1nc2ccc(F)cc2s1)c1ccccc1 [Compound 03-92]
6. O=C(Nc1nc2cc(O)ccc2s1)c1ccccc1 [Compound 03-102]
7. CC(=O)Nc1nc2cc(C)ccc2s1 [Compound 03-76]

84
50
88
100
88
52
75

Batch request: residual kinase activity, IGF-1R for each of the following molecules.
1. O=C(Nc1nc2ccc(O)cc2s1)c1ccccc1 [Compound 03-60]
2. O=C(Nc1nc2ccc(C(F)(F)F)cc2s1)c1ccccc1 [Compound 03-99]
3. O=C(Nc1nc2ccc(O)cc2s1)c1ccccn1 [Compound 03-12]

18
85
54

----------
Provide the reported remaining activity at 100 µM of each item.
target: FGF-R1 (Homo sapiens); assay: Kinase profiling FGF-R1; assay type: biochemical; settings: 100 micromolar inhibitor concentration; 100 is no change; read-out: residual kinase activity, FGF-R1
Sequence (P11362 22-822, species assumed): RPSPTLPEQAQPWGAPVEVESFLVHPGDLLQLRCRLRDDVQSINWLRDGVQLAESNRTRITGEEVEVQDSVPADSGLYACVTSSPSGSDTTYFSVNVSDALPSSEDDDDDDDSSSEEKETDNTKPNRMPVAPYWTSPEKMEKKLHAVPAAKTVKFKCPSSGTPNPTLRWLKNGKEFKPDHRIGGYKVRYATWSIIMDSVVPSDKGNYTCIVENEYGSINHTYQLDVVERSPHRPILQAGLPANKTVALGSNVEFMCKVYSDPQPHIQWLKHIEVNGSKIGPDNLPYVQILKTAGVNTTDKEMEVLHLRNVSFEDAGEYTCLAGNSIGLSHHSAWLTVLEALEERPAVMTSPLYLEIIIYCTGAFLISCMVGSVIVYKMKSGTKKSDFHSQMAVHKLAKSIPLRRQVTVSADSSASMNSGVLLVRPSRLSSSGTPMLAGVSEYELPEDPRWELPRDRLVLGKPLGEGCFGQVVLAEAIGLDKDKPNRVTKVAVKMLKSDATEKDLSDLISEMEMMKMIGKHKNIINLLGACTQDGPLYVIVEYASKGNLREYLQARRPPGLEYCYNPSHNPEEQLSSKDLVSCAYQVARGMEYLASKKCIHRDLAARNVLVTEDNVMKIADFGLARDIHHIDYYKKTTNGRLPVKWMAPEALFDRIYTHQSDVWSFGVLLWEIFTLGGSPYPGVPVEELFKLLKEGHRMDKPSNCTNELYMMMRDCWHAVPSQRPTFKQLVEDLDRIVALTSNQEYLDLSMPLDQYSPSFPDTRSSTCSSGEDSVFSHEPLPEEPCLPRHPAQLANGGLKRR

CC(=O)Nc1nc2ccc(C(F)(F)F)cc2s1 ... 40%
COc1ccc2sc(NC(C)=O)nc2c1 ... 104%
CC(=O)Nc1nc2ccc(O)cc2s1 ... 42%
CC(=O)Nc1nc2cc(C(F)(F)F)ccc2s1 ... 109%
CC(=O)Nc1nc2cc(F)ccc2s1 ... 103%

Per the record, `CC(=O)Nc1nc2ccc(C#N)cc2s1` has remaining activity at 100 µM of 51%

----------
target: UniProt:Q16832; test: Kinase profiling DDR2; type: biochemical; details: 100 micromolar inhibitor concentration; 100 is no change; read-out: residual kinase activity, DDR2
Sequence (Q16832 22-855, species assumed): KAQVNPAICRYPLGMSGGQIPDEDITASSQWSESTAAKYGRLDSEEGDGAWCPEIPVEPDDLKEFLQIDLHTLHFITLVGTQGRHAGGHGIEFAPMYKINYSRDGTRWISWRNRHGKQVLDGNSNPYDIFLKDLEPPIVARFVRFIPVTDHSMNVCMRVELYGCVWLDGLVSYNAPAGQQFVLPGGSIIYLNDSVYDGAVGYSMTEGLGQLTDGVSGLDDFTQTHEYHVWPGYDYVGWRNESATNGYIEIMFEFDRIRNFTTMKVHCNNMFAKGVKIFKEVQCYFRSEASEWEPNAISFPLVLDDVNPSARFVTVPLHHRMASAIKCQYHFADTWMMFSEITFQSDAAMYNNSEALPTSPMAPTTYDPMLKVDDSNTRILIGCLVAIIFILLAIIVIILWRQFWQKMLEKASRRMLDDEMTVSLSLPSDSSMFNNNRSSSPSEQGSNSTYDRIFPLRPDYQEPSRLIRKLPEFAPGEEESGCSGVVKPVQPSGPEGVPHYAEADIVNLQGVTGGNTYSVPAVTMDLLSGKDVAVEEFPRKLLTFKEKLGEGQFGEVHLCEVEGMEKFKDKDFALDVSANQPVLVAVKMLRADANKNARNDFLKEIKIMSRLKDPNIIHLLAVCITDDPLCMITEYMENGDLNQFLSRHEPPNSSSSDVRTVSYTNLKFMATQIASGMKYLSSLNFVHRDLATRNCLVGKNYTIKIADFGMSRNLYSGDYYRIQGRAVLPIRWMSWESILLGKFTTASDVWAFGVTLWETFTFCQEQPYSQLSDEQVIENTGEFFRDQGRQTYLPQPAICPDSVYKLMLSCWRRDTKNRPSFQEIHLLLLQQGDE
Entries whose remaining activity at 100 µM is below 60% take MET; entries at or above 60% take NOT MET.

Worked examples follow.
CC(=O)Nc1nc2ccc(C#N)cc2s1 [Compound 01-94] ... NOT MET
CC(=O)Nc1nc2cc(C(F)(F)F)ccc2s1 [Compound 03-73] ... NOT MET
CC(=O)Nc1nc2ccc(O)cc2s1 [Compound 01-71] ... MET
COc1ccc2sc(NC(C)=O)nc2c1 [Compound 03-21] ... NOT MET

For this compound, is remaining activity at 100 µM lower than 60%? CC(=O)Nc1nc2cc(F)ccc2s1 [Compound 03-77]
NOT MET

For this compound, is remaining activity at 100 µM lower than 60%? CC(=O)Nc1nc2ccc(C(F)(F)F)cc2s1 [Compound 01-90]
NOT MET
